Please provide measured GI50 for the entries that follow.
- Tested on: A549
- ASSAY: NCI tumour cell line growth inhibition, 48 h
Active and inactive are the calls of the source. Cut-off read from the data, not from the text of the source: active = GI50 up to about 1.1 µM and inactive = higher.

## Task # return recorded GI50 for input O=C(O)c1nc2ccc(Cl)cc2[nH]c1=O
## Result > 100 µM (inactive)

## Task # return recorded GI50 for input Cc1ccc([S+]([O-])c2sccc2C=O)cc1 (centres undefined)
## Result > 100 µM (inactive)

## Task # return recorded GI50 for input CCOC(=O)C(=O)Nc1c(CC)cccc1C(C)C
## Result > 100 µM (inactive)

## Task # return recorded GI50 for input O=C1CC2=CCCC2O1 (centres undefined)
## Result > 100 µM (inactive)

## Task # return recorded GI50 for input COC(=O)N/N=C(\c1nc2ccc(Cl)cc2nc1O)C(O)c1ccc([N+](=O)[O-])cc1 (centres undefined)
## Result > 100 µM (inactive)

## Task # return recorded GI50 for input CN(C)Cc1cc(C(C)(C)C)cc(C2CCCCC2)c1O
## Result 13.6 µM (inactive)

## Task # return recorded GI50 for input C[C@H]1CC[C@@H]2[C@@H](C)C[C@H]3[C@@H]4C(C)(C)OC(=O)[C@]4(C)C(=O)[C@@]23C1=O
## Result > 100 µM (inactive)

## Task # return recorded GI50 for input COC(=O)c1c2c(cc3c1CC1(C3)Cc3cc4c(c(C(=O)OC)c3C1)CCC4)CCC2
## Result > 100 µM (inactive)

## Task # return recorded GI50 for input COc1ccc(-c2cc(-c3cc(Cl)cc(Br)c3O)nc(O)n2)cc1
## Result 16.7 µM (inactive)

## Task # return recorded GI50 for input COC(=O)c1ccc2cc(O)c(O)cc2c1
## Result 36.9 µM (inactive)

## Task # return recorded GI50 for input Nc1ncc2c(n1)-c1ccccc1OC2N1CCCCC1 (centres undefined)
## Result > 100 µM (inactive)

## Task # return recorded GI50 for input CC1CC(=O)N2CCCNC2=C1C#N (centres undefined)
## Result > 100 µM (inactive)

## Task # return recorded GI50 for input CC(C)(C)OC(=O)C1=C(O)C(C(=O)OC(C)(C)C)C23CCCCC12C(C(=O)OC(C)(C)C)C(O)=C3C(=O)OC(C)(C)C (centres undefined)
## Result > 100 µM (inactive)

## Task # return recorded GI50 for input O=C(NCCN(CCNC(=O)c1cccc(=O)n1O)CCNC(=O)c1cccc(=O)n1O)c1cccc(=O)n1O
## Result > 100 µM (inactive)

## Task # return recorded GI50 for input Cc1cc(C)c2c(=O)cc(-c3ccccc3)[nH]c2c1
## Result 1.84 µM (inactive)

## Task # return recorded GI50 for input Nc1ccn(CC(CO)CC(c2ccccc2)P(=O)(O)O)c(=O)n1 (centres undefined)
## Result > 100 µM (inactive)

## Task # return recorded GI50 for input Nc1nc(Cl)cc(NC2(CO)CCC2)n1
## Result > 100 µM (inactive)

## Task # return recorded GI50 for input CC(=O)OC1CC[C@@]2(C)C(=CC[C@@H]3[C@@H]2CC[C@]2(C)C(OC(C)=O)[C@H](n4ccnc4)C[C@@H]32)C1 (some centres undefined)
## Result 35.3 µM (inactive)

## Task # return recorded GI50 for input COc1ccc(Nc2nc3ccccc3n3cccc23)cc1OC
## Result 17.5 µM (inactive)

## Task # return recorded GI50 for input O=C1CCCCN1C(=O)c1ccc([N+](=O)[O-])cc1
## Result > 100 µM (inactive)

## Task # return recorded GI50 for input CC1CC2C3CCC4=CC(=O)C=CC4(C)C3(F)C(O)CC2(C)C1(O)C(=O)CO.Cc1nnc(NS(=O)(=O)c2ccc(/N=N/c3cc(/N=N/c4ccc(S(=O)(=O)Nc5nnc(C)s5)cc4)c4c(NC(=O)C(Cl)Cl)cccc4c3OC(=O)C(Cl)Cl)cc2)s1
## Result 11.6 µM (inactive)

## Task # return recorded GI50 for input c1ccc(NNN2NC(c3ccccc3)C2c2ccccc2)cc1 (centres undefined)
## Result 60 µM (inactive)

## Task # return recorded GI50 for input COc1ccc(-c2cn3c(nc4ccccc43)c(/C=C/c3cccs3)n2)cc1
## Result 55.6 µM (inactive)

## Task # return recorded GI50 for input COC(=O)[C@]1(C)CCC[C@@]2(C)C1CC[C@]13C=C(C(C)C)[C@H](CC21)CC3(Cl)C#N (some centres undefined)
## Result 57.5 µM (inactive)

## Task # return recorded GI50 for input O=C1CCC[C@H]2O[C@@H](COC(=O)c3ccccc3)C[C@H]2O1
## Result > 100 µM (inactive)

## Task # return recorded GI50 for input CC(C)(C)C1CCC2c3c([nH]c4ccccc34)C3C(=O)N(c4ccc(C(=O)O)cc4)C(=O)C3C2C1 (centres undefined)
## Result 12.2 µM (inactive)

## Task # return recorded GI50 for input O=c1[nH]c(S)nc2c1sc(=S)n2-c1ccccc1
## Result > 100 µM (inactive)

## Task # return recorded GI50 for input O=S(=O)(O)c1cc(S(=O)(=O)O)c2c(/N=N/c3ccc(/N=N/c4ccccc4)cc3)c(O)ccc2c1
## Result > 100 µM (inactive)

## Task # return recorded GI50 for input CC(C)Cn1cnnc1NS(=O)(=O)c1cc(C(=O)NN)c(Cl)cc1S
## Result > 10 µM (inactive)
